# Assay summary: Dynamic Vapor Sorption (DVS) water uptake
# Format: physicochemical
# Recorded conditions: after DVS experiment

- Compound: "CC(C)[C@@H](C)[C@@]1(C)CC[C@]2(C)[C@H]3CC[C@@H]4[C@@]5(COC[C@]4(C)[C@@H](OC[C@](C)(N)C(C)(C)C)[C@H](n4ncnc4-c4ccncc4)C5)C3=CC[C@@]2(C)[C@@H]1C(=O)O [SCY-078 amorphous freebase]"
  solid form by XRPD after DVS: "no form change"
- Compound: "CC(C)[C@@H](C)[C@@]1(C)CC[C@]2(C)[C@H]3CC[C@@H]4[C@@]5(COC[C@]4(C)[C@@H](OC[C@](C)(N)C(C)(C)C)[C@H](n4ncnc4-c4ccncc4)C5)C3=CC[C@@]2(C)[C@@H]1C(=O)O.O=C(O)/C=C/C(=O)O [SCY-078 fumarate Type A]"
  solid form by XRPD after DVS: "no form change"

----------
# Assay summary: Approximate solubility in solvents at room temperature
# Assay type: physicochemical
# Recorded conditions: 25 °C, organic solvent or mixture, thermodynamic from solid; MIBK, RT

- Chem smiles: "CC(C)[C@@H](C)[C@@]1(C)CC[C@]2(C)[C@H]3CC[C@@H]4[C@@]5(COC[C@]4(C)[C@@H](OC[C@](C)(N)C(C)(C)C)[C@H](n4ncnc4-c4ccncc4)C5)C3=CC[C@@]2(C)[C@@H]1C(=O)O"
  solubility: "> 29 mg/mL"

----------
# Assay summary: Approximate solubility in solvents at room temperature
# Format: physicochemical
# Recorded conditions: 25 °C, organic solvent or mixture, thermodynamic from solid; EtOH, RT
Assay endpoint: solubility

- Chem smiles: "CC(C)[C@@H](C)[C@@]1(C)CC[C@]2(C)[C@H]3CC[C@@H]4[C@@]5(COC[C@]4(C)[C@@H](OC[C@](C)(N)C(C)(C)C)[C@H](n4ncnc4-c4ccncc4)C5)C3=CC[C@@]2(C)[C@@H]1C(=O)O"
  Measured result: "2600 to 3000 µg/mL"

----------
# Assay summary: Approximate solubility in solvents at room temperature
# Type: physicochemical
# Recorded conditions: 25 °C, organic solvent or mixture, thermodynamic from solid; iPrOAc, RT

- Chem smiles: "CC(C)[C@@H](C)[C@@]1(C)CC[C@]2(C)[C@H]3CC[C@@H]4[C@@]5(COC[C@]4(C)[C@@H](OC[C@](C)(N)C(C)(C)C)[C@H](n4ncnc4-c4ccncc4)C5)C3=CC[C@@]2(C)[C@@H]1C(=O)O"
  solubility: "10.5 to 21 mg/mL"

----------
# Assay summary: Approximate solubility in solvents at room temperature
# Format: physicochemical
# Recorded conditions: 25 °C, organic solvent or mixture, thermodynamic from solid; CHCl3, RT

- Chem smiles: "CC(C)[C@@H](C)[C@@]1(C)CC[C@]2(C)[C@H]3CC[C@@H]4[C@@]5(COC[C@]4(C)[C@@H](OC[C@](C)(N)C(C)(C)C)[C@H](n4ncnc4-c4ccncc4)C5)C3=CC[C@@]2(C)[C@@H]1C(=O)O"
  solubility: "> 33 mg/mL"

----------
# Assay summary: Approximate solubility in solvents at room temperature
# Assay type: physicochemical
# Recorded conditions: 25 °C, organic solvent or mixture, thermodynamic from solid; NMP, RT

- Compound: "CC(C)[C@@H](C)[C@@]1(C)CC[C@]2(C)[C@H]3CC[C@@H]4[C@@]5(COC[C@]4(C)[C@@H](OC[C@](C)(N)C(C)(C)C)[C@H](n4ncnc4-c4ccncc4)C5)C3=CC[C@@]2(C)[C@@H]1C(=O)O [SCY-078]"
  solubility: "> 45 mg/mL"

----------
# Assay summary: Chemical and physical stability of SCY-078 salts on storage (25° C./60% RH, 40° C./75% RH, 60° C.)
# Format: physicochemical
# Recorded conditions: Initial

- Compound: "CC(C)[C@@H](C)[C@@]1(C)CC[C@]2(C)[C@H]3CC[C@@H]4[C@@]5(COC[C@]4(C)[C@@H](OC[C@](C)(N)C(C)(C)C)[C@H](n4ncnc4-c4ccncc4)C5)C3=CC[C@@]2(C)[C@@H]1C(=O)O.O=C(O)CC(O)(CC(=O)O)C(=O)O [Type S]"
  Impurity % by HPLC: "0.10%"
- Compound: "CC(C)[C@@H](C)[C@@]1(C)CC[C@]2(C)[C@H]3CC[C@@H]4[C@@]5(COC[C@]4(C)[C@@H](OC[C@](C)(N)C(C)(C)C)[C@H](n4ncnc4-c4ccncc4)C5)C3=CC[C@@]2(C)[C@@H]1C(=O)O.O=C(O)CC(O)(CC(=O)O)C(=O)O [Type M]"
  Impurity % by HPLC: "0.42%"
- Compound: "CC(C)[C@@H](C)[C@@]1(C)CC[C@]2(C)[C@H]3CC[C@@H]4[C@@]5(COC[C@]4(C)[C@@H](OC[C@](C)(N)C(C)(C)C)[C@H](n4ncnc4-c4ccncc4)C5)C3=CC[C@@]2(C)[C@@H]1C(=O)O.O=C(O)/C=C/C(=O)O [SCY-078 fumarate Type A]"
  Impurity % by HPLC: "0.12%"
- Compound: "CC(C)[C@@H](C)[C@@]1(C)CC[C@]2(C)[C@H]3CC[C@@H]4[C@@]5(COC[C@]4(C)[C@@H](OC[C@](C)(N)C(C)(C)C)[C@H](n4ncnc4-c4ccncc4)C5)C3=CC[C@@]2(C)[C@@H]1C(=O)O.O=C(O)CC(O)(CC(=O)O)C(=O)O [SCY-078 citrate Type A]"
  Impurity % by HPLC: "0.34%"

----------
# Assay summary: Approximate solubility in solvents at room temperature
# Type: physicochemical
# Recorded conditions: 25 °C, organic solvent or mixture, thermodynamic from solid; DMA, RT

- Compound: "CC(C)[C@@H](C)[C@@]1(C)CC[C@]2(C)[C@H]3CC[C@@H]4[C@@]5(COC[C@]4(C)[C@@H](OC[C@](C)(N)C(C)(C)C)[C@H](n4ncnc4-c4ccncc4)C5)C3=CC[C@@]2(C)[C@@H]1C(=O)O [SCY-078]"
  solubility: "> 40 mg/mL"

----------
# Lookup of reported water uptake (DVS) keyed by entry
# Assay summary: Dynamic Vapor Sorption (DVS) water uptake
# Type: physicochemical
# Recorded conditions: 25° C., 80% RH
Assay endpoint: water uptake (DVS) (%)

- Compound: "CC(C)[C@@H](C)[C@@]1(C)CC[C@]2(C)[C@H]3CC[C@@H]4[C@@]5(COC[C@]4(C)[C@@H](OC[C@](C)(N)C(C)(C)C)[C@H](n4ncnc4-c4ccncc4)C5)C3=CC[C@@]2(C)[C@@H]1C(=O)O.O=C(O)CC(O)(CC(=O)O)C(=O)O [SCY-078 citrate Type M]"
  Assay endpoint: "water uptake (DVS)"
  Measured result: 11.0
- Compound: "CC(C)[C@@H](C)[C@@]1(C)CC[C@]2(C)[C@H]3CC[C@@H]4[C@@]5(COC[C@]4(C)[C@@H](OC[C@](C)(N)C(C)(C)C)[C@H](n4ncnc4-c4ccncc4)C5)C3=CC[C@@]2(C)[C@@H]1C(=O)O.CS(=O)(=O)O [SCY-078 mesylate Type A]"
  Assay endpoint: "water uptake (DVS)"
  Measured result: 11.5
- Compound: "CC(C)[C@@H](C)[C@@]1(C)CC[C@]2(C)[C@H]3CC[C@@H]4[C@@]5(COC[C@]4(C)[C@@H](OC[C@](C)(N)C(C)(C)C)[C@H](n4ncnc4-c4ccncc4)C5)C3=CC[C@@]2(C)[C@@H]1C(=O)O.O=C(O)/C=C/C(=O)O [SCY-078 fumarate Type A]"
  Assay endpoint: "water uptake (DVS)"
  Measured result: 2.5
- Compound: "CC(C)[C@@H](C)[C@@]1(C)CC[C@]2(C)[C@H]3CC[C@@H]4[C@@]5(COC[C@]4(C)[C@@H](OC[C@](C)(N)C(C)(C)C)[C@H](n4ncnc4-c4ccncc4)C5)C3=CC[C@@]2(C)[C@@H]1C(=O)O.O=C(O)CC(O)(CC(=O)O)C(=O)O [SCY-078 citrate Type S]"
  Assay endpoint: "water uptake (DVS)"
  Measured result: 8.2
- Compound: "CC(C)[C@@H](C)[C@@]1(C)CC[C@]2(C)[C@H]3CC[C@@H]4[C@@]5(COC[C@]4(C)[C@@H](OC[C@](C)(N)C(C)(C)C)[C@H](n4ncnc4-c4ccncc4)C5)C3=CC[C@@]2(C)[C@@H]1C(=O)O.O=P(O)(O)O [SCY-078 phosphate Type A]"
  Assay endpoint: "water uptake (DVS)"
  Measured result: 12.5

----------
# Assay summary: Approximate solubility in solvents at room temperature
# Type: physicochemical
# Recorded conditions: 25 °C, organic solvent or mixture, thermodynamic from solid; DMSO, RT

- Chem smiles: "CC(C)[C@@H](C)[C@@]1(C)CC[C@]2(C)[C@H]3CC[C@@H]4[C@@]5(COC[C@]4(C)[C@@H](OC[C@](C)(N)C(C)(C)C)[C@H](n4ncnc4-c4ccncc4)C5)C3=CC[C@@]2(C)[C@@H]1C(=O)O"
  solubility: "> 32 mg/mL"
